Tested on: Escherichia coli TOP10;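 note: peptides expressed intracellularly from a pBAD plasmid library in pooled LB shake-flask culture, induced with 0.3% L-arabinose, DNA abundance read by NGS, three biological replicates, DESeq2 with apeglm shrinkage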
Test: shrunken log2 fold change of peptide-encoding DNA abundance (4.5 h post-induction vs induction); higher = less antimicrobial activity (less host growth inhibition)
Settings: time post-induction: 4.5 h; library: site-saturation at positions 5, 18, 19, 20
Binary call on shrunken log2 fold change: Condition met from 0.05 upward, Condition not met beneath that.

# example entries with known answers
{"Record sequence": "RRIRLRPPRLPRPRPRPCQNPRP", "Tested system": "Escherichia coli TOP10", "Category": "Condition not met"}
{"Record sequence": "RRIRVRPPRLPRPRPRPCLCPRP", "Tested system": "Escherichia coli TOP10", "Category": "Condition not met"}
{"Record sequence": "RRIRMRPPRLPRPRPRPDFAPRP", "Tested system": "Escherichia coli TOP10", "Category": "Condition met"}

Qu. Confirm if shrunken log2 fold change reported for the sequence "RRIRWRPPRLPRPRPRPVECPRP" is 0.05 or above.
Ans. Condition met

Qu. Confirm if shrunken log2 fold change reported for the sequence "RRIRQRPPRLPRPRPRPVPNPRP" is 0.05 or above.
Ans. Condition met

Qu. Confirm if shrunken log2 fold change reported for the sequence "RRIRMRPPRLPRPRPRPIRSPRP" is 0.05 or above.
Ans. Condition not met

Qu. Confirm if shrunken log2 fold change reported for the sequence "RRIRMRPPRLPRPRPRPGMEPRP" is 0.05 or above.
Ans. Condition met

Qu. Confirm if shrunken log2 fold change reported for the sequence "RRIRYRPPRLPRPRPRPKQTPRP" is 0.05 or above.
Ans. Condition met

Qu. Confirm if shrunken log2 fold change reported for the sequence "RRIRMRPPRLPRPRPRPNNPPRP" is 0.05 or above.
Ans. Condition met

Qu. Confirm if shrunken log2 fold change reported for the sequence "RRIRQRPPRLPRPRPRPKVDPRP" is 0.05 or above.
Ans. Condition met

Qu. Confirm if shrunken log2 fold change reported for the sequence "RRIRWRPPRLPRPRPRPECGPRP" is 0.05 or above.
Ans. Condition met

Qu. Confirm if shrunken log2 fold change reported for the sequence "RRIRIRPPRLPRPRPRPDPHPRP" is 0.05 or above.
Ans. Condition not met

Qu. Confirm if shrunken log2 fold change reported for the sequence "RRIRNRPPRLPRPRPRPLILPRP" is 0.05 or above.
Ans. Condition not met

Qu. Confirm if shrunken log2 fold change reported for the sequence "RRIRNRPPRLPRPRPRPHAIPRP" is 0.05 or above.
Ans. Condition not met
